The following compounds are shown together with reported DI (Diastereoselectivity Index between trans-(α) and cis-(β) isomers), LipY values.
- tgt: Mycobacterium tuberculosis LipY (triacylglycerol lipase) (Mycobacterium tuberculosis)
- Sequence (I6Y2J4 whole entry): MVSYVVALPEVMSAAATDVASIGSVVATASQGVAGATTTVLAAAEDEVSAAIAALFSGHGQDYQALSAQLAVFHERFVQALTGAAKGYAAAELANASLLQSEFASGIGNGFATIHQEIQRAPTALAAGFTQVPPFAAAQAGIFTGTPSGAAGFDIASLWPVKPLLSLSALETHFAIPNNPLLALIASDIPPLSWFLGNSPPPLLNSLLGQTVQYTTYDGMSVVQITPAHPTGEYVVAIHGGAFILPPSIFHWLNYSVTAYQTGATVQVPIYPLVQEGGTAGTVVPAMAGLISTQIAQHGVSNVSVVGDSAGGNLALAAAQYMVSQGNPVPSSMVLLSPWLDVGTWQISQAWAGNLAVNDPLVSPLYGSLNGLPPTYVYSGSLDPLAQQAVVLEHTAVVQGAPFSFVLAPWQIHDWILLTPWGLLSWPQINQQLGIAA
- Assay type: biochemical
Just the number please, in %, no unit attached.

Query :: I'm curious: which DI (Diastereoselectivity Index between trans-(α) and cis-(β) isomers), LipY was measured for CCCCCCCCCCCCCCCCC1CCP(=O)(OC)OC(C)=C1C(=O)OC (racemic) [9(β)] tested on Mycobacterium tuberculosis LipY (triacylglycerol lipase) (Mycobacterium tuberculosis)?
Result :: 70.5

Query :: Cool, now CCCCCCCCCCCCC1CCP(=O)(OC)OC(C)=C1C(=O)OC (racemic) [8(β)]
Result :: 28.0

Query :: Also CCCCCCCCCCC1CCP(=O)(OC)OC(C)=C1C(=O)OC (racemic) [Compound 7(β)] ?
Result :: 80.3

Query :: Also need CCCCCCCCCCCCC1CCP(=O)(OC)OC(C)=C1C(=O)OC (racemic) [8(α)] , thanks.
Result :: 28.0

Others:
Query :: Enter reported DI (Diastereoselectivity Index between trans-(α) and cis-(β) isomers), LipY observed with Mycobacterium tuberculosis LipY (triacylglycerol lipase) (Mycobacterium tuberculosis) for CCCCCCCCCCCCCCCCCCC1CCP(=O)(OC)OC(C)=C1C(=O)OC (racemic) [10(α)]
Result :: 81.3

Query :: Entry CCCCCCCCCCC1CCP(=O)(OC)OC(C)=C1C(=O)OC (racemic) [7(α)] please
Result :: 80.3

Query :: Same for CCCCCCCCCCCCCCCCCCC1CCP(=O)(OC)OC(C)=C1C(=O)OC (racemic) [10(β)]
Result :: 81.3

Query :: Now consider CCCCCCCCCCCCCCCCC1CCP(=O)(OC)OC(C)=C1C(=O)OC (racemic) [9(α)] .
Result :: 70.5
